test system: Capan-1; test: Proliferation assay (CellTiter Glo), Capan-1; format: cell-based; conditions: Homo sapiens, relative EC50, 96 hours, read-out: Re EC50
reported_property: pEC50
Please treat pEC50 as minus the base-10 logarithm of the molar concentration.

Quick one: pEC50 for CC(=O)O[C@@]12C[C@@H](C)[C@]3(O)C4C=C(C)C(=O)[C@@]4(O)CC(CO)=C[C@H]3[C@@H]1C2(C)C (stereo partly shown) [Compound K-101A, Prostratin] ?
6.51

====

test system: H358; assay: Proliferation assay (CellTiter Glo), H358; format: cell-based; conditions: absolute EC50, 96 hours, read-out: Ab EC50
reported_property: EC50

Quick one: EC50 for CC(=O)OCC1=C[C@H]2[C@@H]3C(C)(C)[C@]3(OC(C)=O)C[C@@H](C)[C@]2(O)C2C=C(C)C(=O)[C@@]2(O)C1 (some centres unmarked) [Compound K-101E] ?
> 30 µM

Quick one: EC50 for CC(=O)O[C@@]12C[C@@H](C)[C@]3(O)C4C=C(C)C(O)[C@@]4(O)CC(CO)=C[C@H]3[C@@H]1C2(C)C (some centres unmarked) [Compound K-101C] ?
> 30 µM
